- system: panel of 255 wild-type kinases (Homo sapiens, UniProt P57059)
- Sequence (P57059 whole entry): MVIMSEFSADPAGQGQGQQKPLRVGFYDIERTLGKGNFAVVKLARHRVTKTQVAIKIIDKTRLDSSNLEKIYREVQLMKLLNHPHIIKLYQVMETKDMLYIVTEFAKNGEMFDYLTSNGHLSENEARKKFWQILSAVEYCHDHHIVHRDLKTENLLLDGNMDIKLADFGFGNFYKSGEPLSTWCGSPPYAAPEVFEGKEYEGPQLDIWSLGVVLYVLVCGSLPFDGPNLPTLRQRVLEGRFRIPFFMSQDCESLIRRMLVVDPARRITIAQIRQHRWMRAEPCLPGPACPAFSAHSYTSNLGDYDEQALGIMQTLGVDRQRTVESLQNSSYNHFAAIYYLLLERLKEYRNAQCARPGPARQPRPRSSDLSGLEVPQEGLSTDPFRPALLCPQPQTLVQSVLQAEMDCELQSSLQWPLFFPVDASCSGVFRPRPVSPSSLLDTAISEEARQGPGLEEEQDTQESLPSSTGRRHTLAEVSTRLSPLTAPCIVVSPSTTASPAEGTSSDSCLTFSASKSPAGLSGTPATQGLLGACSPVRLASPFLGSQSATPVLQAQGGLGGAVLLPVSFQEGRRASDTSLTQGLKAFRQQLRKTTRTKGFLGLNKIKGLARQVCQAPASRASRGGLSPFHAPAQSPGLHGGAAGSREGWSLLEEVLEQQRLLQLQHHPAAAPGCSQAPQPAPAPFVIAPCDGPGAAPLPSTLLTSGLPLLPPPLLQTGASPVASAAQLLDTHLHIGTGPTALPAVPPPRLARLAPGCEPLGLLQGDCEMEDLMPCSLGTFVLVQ
- method-notes: Kinase panel profiling at 1 µmol/L (MSA or IMAP), percentage inhibition
- Format: biochemical
- measurement-conditions: kinase SIK; 1 µmol/L single concentration; read-out: %-inhibition at 1 µmol/L, SIK
inhibition at 1 µM values by entry
# value in %; strip the unit string

In [3]: df
Out[3]:
                            molecule_smiles                                    system  meas_value
0  CCn1c(=O)c(-c2cc(NC(=O)Nc3ccccc3)c(F)cc2Br)cc2cnc(NC)cc21  panel of 255 wild-type kinases (Homo sapiens, UniProt P57059)          66
1  COC(=O)N[C@@H](C)CNc1nccc(-c2cn(C(C)C)nc2-c2cc(Cl)cc(NS(C)(=O)=O)c2F)n1  panel of 255 wild-type kinases (Homo sapiens, UniProt P57059)        2.23
2  O=C(Nc1cnn2ccc(N3CCC[C@@H]3c3cc(F)ccc3F)nc12)N1CC[C@H](O)C1  panel of 255 wild-type kinases (Homo sapiens, UniProt P57059)        -1.7
3  Cn1cc(-c2cc3c(N4CCN(c5ncc([C@@](C)(N)c6ccc(F)cc6)cn5)CC4)ncnn3c2)cn1  panel of 255 wild-type kinases (Homo sapiens, UniProt P57059)          37
4  C[C@H]1Oc2cc(cnc2N)-c2c(nn(C)c2C#N)CN(C)C(=O)c2ccc(F)cc21  panel of 255 wild-type kinases (Homo sapiens, UniProt P57059)       -1.87

We now examine a further compound.
QUERY: Form field - read-out: inhibition at 1 µM; system: panel of 255 wild-type kinases (Homo sapiens, UniProt P57059); submitted item: `CO[C@]1(C(=O)N[C@@H](C)c2ccc(-n3cc(F)cn3)nc2)CC[C@H](c2nc(C)cc(Nc3cc(C)[nH]n3)n2)CC1`
RESULT: 1.69
